Every entry's value here was drawn from PubChem BioAssay AID777.

assay system: Cytochrome P450 2C9 (Homo sapiens) (UniProt P11712)
Sequence (P11712 whole entry, looked up): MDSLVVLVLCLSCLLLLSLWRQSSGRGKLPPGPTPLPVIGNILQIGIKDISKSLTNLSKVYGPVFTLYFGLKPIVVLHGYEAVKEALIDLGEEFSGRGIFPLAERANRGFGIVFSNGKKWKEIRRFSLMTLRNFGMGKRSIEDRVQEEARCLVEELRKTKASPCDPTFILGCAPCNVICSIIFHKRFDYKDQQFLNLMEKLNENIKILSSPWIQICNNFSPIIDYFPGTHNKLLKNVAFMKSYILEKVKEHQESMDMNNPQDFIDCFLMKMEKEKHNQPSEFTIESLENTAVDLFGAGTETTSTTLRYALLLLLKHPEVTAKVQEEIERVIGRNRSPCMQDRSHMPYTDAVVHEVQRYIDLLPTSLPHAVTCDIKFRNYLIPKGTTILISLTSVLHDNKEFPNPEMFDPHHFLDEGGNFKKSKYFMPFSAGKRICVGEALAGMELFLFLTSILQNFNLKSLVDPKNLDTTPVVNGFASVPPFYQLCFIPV
assay comment: blockers of cytochrome P450 2C9 activity – biochemical, luminescence, ADME assay, primary screen (AID 777)
condition summary: CYP2C9 Supersomes, luciferin-H conversion, at 5 µM
Hit rate of the full screen: of about 96,000 compounds, about 19,000 (20%) were called active.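 The calls were made as follows: active = blocking of liver enzyme CYP2C9 beyond about 50% at 5 µM (limit read from the data); inactive = the rest.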 Only a sample is shown.
Field 'call' accepts active, inactive

INPUT: I'd appreciate the recorded outcome for CC(C)OC(=O)C(C#N)c1nc2ccccc2nc1N1CCN(Cc2ccc3c(c2)OCO3)CC1 (centres undefined) from this test.
OUTPUT: inactive

INPUT: Outcome logged for CSc1ccc(NC(=O)N2CC(C)OC(C)C2)cc1 (centres undefined) in this assay:
OUTPUT: inactive

INPUT: // param item: "COc1ccc(CCNC(=O)CSc2nc(C)nc3c2oc2ccccc23)cc1OC" ; yields the recorded call
OUTPUT: active

INPUT: Assay result, entry "CC(=O)CSc1nnc(CSc2ncccn2)n1C1CCCCC1" — outcome?
OUTPUT: inactive

INPUT: Which outcome did this test record for the compound "Cn1c2ccccc2c2c(C(=O)N3CCN(c4ccc(F)cc4)CC3)cn(C3CCCC3)c(=O)c21" ?
OUTPUT: active

INPUT: Record request — test call for CCn1c(CSc2ncccn2)nnc1SCC(=O)N1c2ccccc2CC1C (centres undefined)
OUTPUT: inactive

INPUT: Please let me know the test result on file for "C=C(C)Cn1c(N2CCCC2)nc2c1c(=O)[nH]c(=O)n2C" .
OUTPUT: inactive

INPUT: Returns: the outcome recorded for "CC(=O)OCc1cc2cc(C)ccc2[nH]c1=O" in this assay.
OUTPUT: inactive

INPUT: Test call for this compound, please: COc1ccc(OC)c(NC(=O)CC(Cc2ccccc2OC)C(=O)O)c1 (centres undefined)
OUTPUT: inactive

INPUT: Fill in: this test's call for "CCOc1nc(OCC)nc(-n2cc(-c3ccccc3)nn2)n1" is ___
OUTPUT: inactive

INPUT: Hi team, can someone confirm the assay call for "O=C(COc1cc(Cl)c(Cl)cc1Cl)NC(=O)NC1CCCC1" ?
OUTPUT: inactive

INPUT: # outcome recorded in this test, key = "CCOC(=O)N1CCN(C(=O)c2nn(-c3ccc(C)cc3)c(=O)c3c2c2ccccc2n3C)CC1"
OUTPUT: inactive

INPUT: Assay outcome for "CCn1c(=O)cc(O)c2ccccc21" : what was it?
OUTPUT: inactive

INPUT: Dear all, I need the recorded test outcome for COc1cc2[nH]c(=S)n(CCN3CCCCC3C)c(=O)c2cc1OC (centres undefined) , thank you.
OUTPUT: inactive

INPUT: Which outcome was assigned to CC(NC(=O)COc1ccccc1)C(=O)NC1=NCCS1 (centres undefined) in this test?
OUTPUT: inactive

INPUT: Called result for "Cc1nnc(SCCCn2c(N3CCCCC3)nc3c2c(=O)[nH]c(=O)n3C)s1"
OUTPUT: active

INPUT: Look up the recorded call for O=C(c1ccco1)N1CCN(C(=O)C2CC(c3ccc(F)cc3)=NO2)CC1 (centres undefined) in this test.
OUTPUT: inactive

INPUT: How did this test come out for "CCCS(=O)(=O)N1CCC(C(=O)NCCc2ccc(OC)c(OC)c2)CC1" ?
OUTPUT: inactive

INPUT: Hey, what did the test say about "O=C(NC1=NCCS1)[C@H](Cc1ccccc1)N1C(=O)c2ccccc2C1=O" ?
OUTPUT: active

INPUT: Any idea what this test logged for "N#Cc1c(NC(=O)CSc2nc3ccccc3c(=O)n2Cc2ccco2)sc2c1CCCC2" ?
OUTPUT: inactive

INPUT: // param item: "O=C(COC(=O)c1ccc(S(=O)(=O)N2CCc3ccccc3C2)cc1)NC(=O)NCc1ccco1" ; yields the recorded call
OUTPUT: inactive

INPUT: Identify the outcome logged in this assay for the compound shown: "CNC(=O)NCCN1CCCC1=O"
OUTPUT: inactive

INPUT: Each compound tested received a call. Report the one for CC(C)OC(=O)C(C#N)c1nc2ccccc2nc1N1CCN(Cc2ccccc2)CC1 (centres undefined) .
OUTPUT: active

INPUT: Just curious, what result did COc1ccc(CCNC(=O)C2CCCN(Cc3nc(-c4cccc(Cl)c4)oc3C)C2)cc1OC (centres undefined) get here?
OUTPUT: active

INPUT: Assay outcome for "COc1ccc(CNc2ccc3c(c2)CCC3)cc1OC" : what was it?
OUTPUT: inactive

INPUT: Could you check what this test reported for CCOC(=O)C(C)Sc1nc2ccccc2c(=O)n1CC1CCCCC1 (centres undefined) ?
OUTPUT: active

INPUT: # lookup: test call for "COc1ccc(-c2nnc(SCC(=O)NC3CCCCC3)o2)cc1OC"
OUTPUT: inactive

INPUT: Could you kindly confirm the outcome this assay logged for COc1ccc(C2OC(=O)CC2C(=O)NC(C)C)cc1 (centres undefined) ?
OUTPUT: inactive

INPUT: Could you kindly confirm the outcome this assay logged for "Cc1cc(C(F)(F)F)n2ncc(-c3ccccc3)c2n1" ?
OUTPUT: inactive

INPUT: Recorded test call requested for CC(C)CC(=O)N=C1SC2CS(=O)(=O)CC2N1CCc1ccccc1 (centres undefined)
OUTPUT: inactive

INPUT: Can you look up the reported call for CCS(=O)(=O)Nc1ccc(C2=NN(S(=O)(=O)c3ccc(F)cc3)C(c3ccco3)C2)cc1 (centres undefined) for me?
OUTPUT: active

INPUT: Short answer needed: outcome of this test for "c1ccc(-n2nnnc2NC2CCCCCC2)cc1" ?
OUTPUT: inactive

INPUT: // param item: Fc1ccc(N2N=C(c3cccs3)CC2c2ccco2)c(F)c1 (centres undefined) ; yields the recorded call
OUTPUT: inactive

INPUT: Identify the outcome logged in this assay for the compound shown: "C=CCOc1c2ccc(C(=O)N(CC)c3ccc(OC)cc3)cc2nn1C"
OUTPUT: inactive

INPUT: What was the test verdict on O=C(OC(C(=O)NC1CCCC1)c1ccc(F)cc1)c1ccno1 (centres undefined) ?
OUTPUT: inactive

INPUT: Check the results log: what was the call for CCS(=O)(=O)c1ccc2oc(SCC(=O)N3c4ccccc4CC3C)nc2c1 (centres undefined) ?
OUTPUT: inactive

INPUT: What is the recorded call for this compound in the test? CSCCC(C(=O)NC1=NCCS1)N1C(=O)c2ccccc2C1=O (centres undefined)
OUTPUT: inactive

INPUT: # outcome recorded in this test, key = "COc1ccc(CCNC(=O)CSc2nnc(-c3cccc(F)c3)o2)cc1OC"
OUTPUT: active

INPUT: Which outcome did this test record for the compound "COc1ccc(CCNC(=O)CSc2nnc(CNC(=O)c3cccs3)o2)cc1OC" ?
OUTPUT: inactive

INPUT: Hi team, can someone confirm the assay call for "COc1cccc(N=c2oc3c(C)ncc(CO)c3cc2C(N)=O)c1" ?
OUTPUT: inactive

INPUT: # lookup: test call for "Fc1c(F)c(C(F)(F)F)c(F)c(F)c1N1CCN(c2ccc3nnc(C(F)(F)F)n3n2)CC1"
OUTPUT: inactive

INPUT: Please state the recorded outcome for this compound: "COc1ccc(CC(=O)Nc2ccc3c(c2)CCC3)cc1S(=O)(=O)N1CCOCC1"
OUTPUT: active

INPUT: Please let me know the test result on file for "Cc1cc2nnc(SCC(=O)N3CCN(c4ccccc4)CC3)n2c(N)n1" .
OUTPUT: inactive

INPUT: What classification did "Cn1c(C(=O)N2CCC(C(N)=O)CC2)cc2c(=O)n(C)c3ccccc3c21" end up with in this test?
OUTPUT: inactive
